- target: Oxytocin receptor (Homo sapiens)
- Sequence (P30559 whole entry): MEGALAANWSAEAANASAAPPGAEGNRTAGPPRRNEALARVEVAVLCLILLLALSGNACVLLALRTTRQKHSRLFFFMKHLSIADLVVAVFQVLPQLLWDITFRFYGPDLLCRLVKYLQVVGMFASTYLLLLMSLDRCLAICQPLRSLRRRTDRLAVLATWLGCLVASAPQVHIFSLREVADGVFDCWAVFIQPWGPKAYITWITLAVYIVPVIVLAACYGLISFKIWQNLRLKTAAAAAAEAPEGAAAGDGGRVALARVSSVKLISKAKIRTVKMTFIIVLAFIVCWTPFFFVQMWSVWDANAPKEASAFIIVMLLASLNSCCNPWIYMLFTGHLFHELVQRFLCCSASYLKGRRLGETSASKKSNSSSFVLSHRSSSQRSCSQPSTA
- method.summary: Agonist activity at human OT receptor expressed in CHO-K1 cells by luciferase reporter gene assay
- Assay type: functional, cell-based
- test.parameters: read-out: pEC50 (converted)
Bridge positions count the residues as written; N and C are the ends. Square brackets hold non-standard residues; d marks the D form. Peptide text beside a SMILES is read from it. * marks the point of attachment. Ala(cPent) = N[C@@H](CC1CCCC1)C(=O)O; 3Thi = N[C@@H](Cc1ccsc1)C(=O)O; Cha = N[C@@H](CC1CCCCC1)C(=O)O; Orn = NCCC[C@H](N)C(=O)O; Dab = NCC[C@H](N)C(=O)O; NHiBu = CC(C)CN*; X2 = CC(O)CN*
Hi there, I'd appreciate the recorded EC50 for every entry that follows.

// EC50 value for CC[C@H](C)[C@@H]1NC(=O)[C@H](Cc2ccccc2)NC(=O)[C@@H](N)CSSC[C@@H](C(=O)N2CCC[C@H]2C(=O)N[C@@H](CCCN)C(=O)NCC(N)=O)NC(=O)[C@H](CC(N)=O)NC(=O)[C@H](CC(=O)NCC(C)O)NC1=O (some centres not stated) (H-CFID(X2)NCP[Orn]G-NH2; disulfide 1-6) : > 10 µM

# compound CC[C@H](C)[C@@H]1NC(=O)[C@H](CC2CCCCC2)NC(=O)[C@@H](N)CSSC[C@@H](C(=O)N2CCC[C@H]2C(=O)N[C@@H](CCN)C(=O)NCC(N)=O)NC(=O)[C@H](CC(N)=O)NC(=O)[C@H](CC(N)=O)NC1=O (H-C[Cha]INNCP[Dab]G-NH2; disulfide 1-6) ; its EC50 = > 10 µM

The value of EC50 measured for the compound CCNC(=O)CC[C@@H]1NC(=O)[C@H]([C@@H](C)CC)NC(=O)[C@H](Cc2ccccc2)NC(=O)[C@@H](N)CSSC[C@@H](C(=O)N2CCC[C@H]2C(=O)N[C@@H](CCCN)C(=O)NCC(N)=O)NC(=O)[C@H](CC(N)=O)NC1=O (H-CFIE(NHEt)NCP[Orn]G-NH2; disulfide 1-6) turned out to be > 10 µM

Value of measured EC50 for the entry CC[C@H](C)[C@@H]1NC(=O)[C@H](Cc2ccccc2)NC(=O)[C@@H](N)CSSC[C@@H](C(=O)N2CCC[C@H]2C(=O)N[C@@H](CCCN)C(=O)NCC(N)=O)NC(=O)[C@H](CC(N)=O)NC(=O)[C@H](CCC(=O)NCC(C)C)NC1=O (H-CFIE(NHiBu)NCP[Orn]G-NH2; disulfide 1-6) : > 10 µM

Measured EC50, CC[C@H](C)[C@@H]1NC(=O)[C@H](CC2CCCC2)NC(=O)[C@@H](N)CSSC[C@@H](C(=O)N2CCC[C@H]2C(=O)N[C@@H](CCN)C(=O)NCC(N)=O)NC(=O)[C@H](CC(N)=O)NC(=O)[C@H](CCC(N)=O)NC1=O (H-C[Ala(cPent)]IQNCP[Dab]G-NH2; disulfide 1-6) : > 10 µM

Reported EC50 of CC[C@H](C)[C@@H]1NC(=O)[C@H](Cc2ccsc2)NC(=O)[C@@H](N)CSSC[C@@H](C(=O)N2CCC[C@H]2C(=O)N[C@@H](CCCN)C(=O)NCC(N)=O)NC(=O)[C@H](CC(N)=O)NC(=O)[C@H](CC(N)=O)NC1=O (H-C[3Thi]INNCP[Orn]G-NH2; disulfide 1-6) : > 10 µM

Field EC50 (entry CC[C@H](C)[C@@H]1NC(=O)[C@H](Cc2ccsc2)NC(=O)[C@@H](N)CSSC[C@@H](C(=O)N2CCC[C@H]2C(=O)N[C@@H](CCN)C(=O)NCC(N)=O)NC(=O)[C@H](CC(N)=O)NC(=O)[C@H](CC(N)=O)NC1=O (H-C[3Thi]INNCP[Dab]G-NH2; disulfide 1-6) ) reads > 10 µM

Source of measurements: ChEMBL document CHEMBL1817572
